All figures here come from BindingDB's records for doi:10.1021/jm980707k.

Experiment Description: In vitro inhibitory activity against H1N9 Influenza A Neuraminidase.
Observed Property: pIC50
The meaning of pIC50 here: minus log10 of the concentration in molar units.

Solved cases (4 shown):
Compound: NCC1CCC(=O)N1c1ccc(C(=O)O)cc1N=C(N)N (stereo unspecified)
pIC50: 2.59
//
Compound: CC(=O)N[C@@H]1[C@@H]([C@H](O)[C@H](O)CO)O[C@](O)(C(=O)O)C[C@H]1O
pIC50: 5.00
//
Compound: NC(N)=Nc1cc(C(=O)O)ccc1N1C(=O)CCC1(CO)CO
pIC50: 5.30
//
Compound: CCC(CC)Nc1cc(C(=O)O)ccc1N1C(=O)CCC1(CO)CO
pIC50: 7.32

pIC50 for CCC(CC)Nc1cc(C(=O)O)ccc1N1CCCC1=O ?
3.65

If you can, please state the reported pIC50 value of O=C(O)c1ccc(N2C(=O)CCC2(CO)CO)cc1 .
3.12
